Every entry's value here was drawn from PubChem BioAssay (NCI).

- System: RPMI-8226 leukemia
- measurement_notes: NCI-60 one-dose screen, 48 h (100 = growth as untreated, 0 = no growth, -100 = all killed)
- experimental_parameters: 10 µM unless noted
This is part of a sample that, as a whole, favours compounds with a hit. Of some 83,000 tested, about 20% had one in any assay.
Please go through the items and note down their growth.
Field: numeric (%). Do not append units.

Ask: Fill blank: measured growth of the compound `O=C(/C=C/c1ccc2c(c1)OCO2)c1c(O)c2ccccc2oc1=O` is ____.
Reply: 115

Ask: Do the same for CC(C)C1CCC(C)C(C2(C#N)C(N)=NC(N)=C2C#N)C1=O (centres undefined) please
Reply: 89

Ask: Do the same for `C[C@@H](NC(=O)c1ncnc(N)c1Cl)c1ncc(C(=O)Nc2cc(C(F)(F)F)c(Cl)cn2)s1` please
Reply: 71.9

Ask: Do the same for `O=S1(=O)OC(c2cc(Cl)c(O)c(Br)c2)(c2cc(Cl)c(O)c(Br)c2)c2ccccc21` please
Reply: 102

Ask: Do the same for `O=c1[nH]c(N2CCOCC2)nc2scc(-c3ccccc3)c12` please
Reply: 97.7

Ask: Do the same for `CSC1=C(N)C(=O)c2[nH]cc(CO)c2C1=N` please
Reply: -32.9

Ask: Do the same for `CNC(=O)c1cc(Oc2ccc(NC(=O)Nc3cc(C(C)(C)C)nn3-c3ccc4ncccc4c3)c(F)c2)ccn1` please
Reply: 0.22

Ask: Do the same for `CN(C)C/C=C/C(=O)Nc1cc2c(Nc3ccc(F)c(Cl)c3)ncnc2cc1O[C@H]1CCOC1` please
Reply: -20.3

Ask: Do the same for `CCN(CC)C(=O)C[N+](C)(C)CCOC(c1ccccc1)c1ccccc1` please
Reply: 114

Ask: Do the same for `O=c1[nH]ccc2c(S(=O)(=O)N3CCCNCC3)cccc12` please
Reply: 106

Ask: Do the same for `O=C(Cc1ccc(/C=C/C(=O)c2ncc[nH]2)cc1)Nc1ccc(Br)cc1` please
Reply: -13.3

Ask: Do the same for `O=C(Cc1ccc(/C=C/C(=O)c2ncc[nH]2)cc1)Nc1ccc(S(F)(F)(F)(F)F)cc1` please
Reply: -17.6

Ask: Do the same for `CCn1c(-c2nonc2N)nc2c(C#CC(C)(C)O)ncc(OC[C@H]3CCCNC3)c21` please
Reply: 91.7

Ask: Do the same for `C[C@@H](Oc1cc(C(=O)Nc2ccc(C(=O)N3CCN(C)CC3)cc2)nnc1N)c1c(Cl)ccc(F)c1Cl` please
Reply: 36.7
